Tested on: TK-10 renal
Your response should consist of one outcome taken from TRUE for active, FALSE for inactive

Look over these answered cases.
{"compound": "CN(C)CC(C(=O)c1ccccc1)c1ccccc1 (configuration not stated)", "target.desc": "TK-10 renal", "category": "FALSE"}
{"compound": "O=C(N[C@H](c1ccc(Cl)c(Cl)c1)C1CNC1)c1ccc2cnccc2c1", "target.desc": "TK-10 renal", "category": "FALSE"}
{"compound": "Clc1ccc(-c2nc3c(-c4ccc(Cl)cc4)nc(-c4ccccc4)cn3c2-c2ccc(Cl)cc2)cc1", "target.desc": "TK-10 renal", "category": "FALSE"}

Challenge: Call for entry Cc1cccc(CN(C)c2ccc(CO)c(Cl)c2)c1 :
Response given: TRUE

Challenge: Also check CCN1CCN(CCOc2ccc(CNc3ccc4nc(CCC5CCCCC5)[nH]c4c3)cc2)CC1
Response given: FALSE
